// data source = ChEMBL document CHEMBL1201862

Below are compounds with their AC50 as measured on Cytochrome P450 3A4 (Homo sapiens, UniProt P08684).
Sequence (P08684 whole entry): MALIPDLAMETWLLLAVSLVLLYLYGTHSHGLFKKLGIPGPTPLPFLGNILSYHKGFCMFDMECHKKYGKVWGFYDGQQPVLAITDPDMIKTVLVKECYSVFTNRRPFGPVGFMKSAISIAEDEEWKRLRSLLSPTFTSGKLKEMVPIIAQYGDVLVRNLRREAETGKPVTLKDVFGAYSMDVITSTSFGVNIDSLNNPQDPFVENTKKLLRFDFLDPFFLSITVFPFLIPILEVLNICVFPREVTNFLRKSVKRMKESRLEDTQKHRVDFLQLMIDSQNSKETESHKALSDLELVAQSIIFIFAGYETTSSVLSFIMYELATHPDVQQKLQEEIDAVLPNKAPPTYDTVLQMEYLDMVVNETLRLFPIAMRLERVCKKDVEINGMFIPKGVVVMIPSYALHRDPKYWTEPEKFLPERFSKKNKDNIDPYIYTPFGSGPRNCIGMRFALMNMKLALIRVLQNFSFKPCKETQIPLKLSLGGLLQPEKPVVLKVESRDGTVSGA

Brc1ccc([C@H]2CN3CCSC3=N2)cc1 ... 25.1 µM (inconclusive)
O=C1OCC(c2ccccc2)=C1c1ccc(S(=O)(=O)N2CCOCC2)s1 ... 28.2 µM (inconclusive)
COc1ccc(-c2csc(-n3ncc(-c4cccs4)c3N)n2)cc1 ... 8.91 µM (inconclusive)
CCC1Oc2ccccc2N(CC(=O)NCCCN2CCCCC2C)C1=O (stereo not given) ... 20 µM (inconclusive)

Proceed to the following item.
QUERY: Fill in AC50 for record COc1ccc(-c2nc3cnc(OC)nc3n(CCc3ccccc3)c2=O)cc1
RESULT: 10 µM (inconclusive)
